Reported growth values for a set of compounds
# Test system: NCI/ADR-RES ovarian
# Test name: NCI-60 one-dose screen, 48 h (100 = growth as untreated, 0 = no growth, -100 = all killed)
# Measurement setup: 10 µM unless noted
The panel holds about 83,000 compounds, 20% with a hit somewhere; the sample as a whole holds those more often.
Quantity: growth (%)

- CCCN1C(=O)NC(=O)C(CC)(N2C(=O)c3c(F)c(F)c(F)c(F)c3C2=O)C1=O (stereo not drawn): -28.5
- CCCn1cc2c3c(cccc31)[C@H]1C[C@@H](C)CN(C)[C@@H]1C2: 78.8
- C/C(=C\c1ccn(-c2ccc(N)c(C(F)(F)F)c2)n1)[C@@H]1C[C@@H]2O[C@]2(C)CCC[C@H](C)[C@H](O)[C@@H](C)C(=O)C(C)(C)[C@@H](O)CC(=O)O1: 0.324

====

# Tested on: NCI-H322M lung
# Test name: NCI-60 one-dose screen, 48 h
# Measurement setup: 10 µM unless noted
# Procedure: Growth inhibition of the NCI-H322M human Non-Small Cell Lung tumor cell line is measured as a screen for anti-cancer activity. Cells are grown in 96 well plates and exposed to the test compound for 48 hours. Compounds are tested at a single concentration, which is 10^-5 M for most compounds. The reported endpoint is percent growth (GI% or GIPRCNT), where numbers from 0 - 100% represent growth inhibition, and numbers from -100% - 0 represent cell death. […]
The panel holds about 83,000 compounds, 20% with a hit somewhere; the sample as a whole holds those more often. Calls of active or inactive are those of the source. The calls were made as follows: active = growth percent below 10; inactive = the rest.
Classes used: 1 (yes) for active, 0 (no) for inactive

- CC[C@H](C)[C@H](NC(=O)C12CC(NC)(C1)C2)C(=O)N(C)[C@H](C[C@@H](OC(C)=O)c1nc(C(=O)N[C@@H](Cc2ccccc2)C[C@H](C)C(=O)OC)cs1)C(C)C: 0 (no)
- CCCn1cc2c3c(cccc31)[C@H]1C[C@@H](C)CN(C)[C@@H]1C2: 0 (no)
- CC[C@H](C)[C@H](NC(=O)c1cnccn1)C(=O)N(C)[C@H](C[C@@H](OC(C)=O)c1nc(C(=O)N[C@@H](Cc2ccccc2)C[C@H](C)C(=O)OC)cs1)C(C)C: 0 (no)
- N#CC(NC(=O)CCl)=C(Cl)Cl: 0 (no)
- COC(=O)[C@@H](C)C[C@H](Cc1ccccc1)NC(=O)c1cccc([C@@H](C[C@H](C(C)C)N(C)C(=O)[C@@H](NC(=O)[C@H]2CCCCN2C)C2CC2)OC(C)=O)n1: 0 (no)
- Cc1ccc(P(=O)(O)O)cc1: 0 (no)
- CC[PH+](CC)CC.O=COC1OC([S-])C(OC=O)C(OC=O)C1OC=O.[Au+] (stereo not given): 1 (yes)
- CCCCn1c(=O)c(C(=O)NCc2ccccc2Cl)c(O)c2ccccc21: 0 (no)
- N#CC(C#N)=C(C#N)C#N: 0 (no)
- C[C@]12CC[C@H]3[C@@H](CC=C4c5nc(-c6ccc(Br)cc6)sc5CC[C@@]43C)[C@@H]1CC[C@@H]2O: 0 (no)
- C=CC[PH+](c1ccccc1)c1ccccc1.C=CC[PH+](c1ccccc1)c1ccccc1.[Pt+2].[S-]c1nc2ccccc2[nH]1.[S-]c1nc2ccccc2[nH]1: 1 (yes)
- CNC(=O)O/N=C(\SC)C(=O)N(C)C: 0 (no)
- O=C1c2ccccc2C(=O)N1N1CC1c1ccccc1 (stereo not given): 0 (no)
- CCN(CC)CCn1c(=O)n(C)c2ccccc21: 0 (no)
- CCN1C(=O)NC(=O)C(C)(N2C(=O)c3c(F)c(F)c(F)c(F)c3C2=O)C1=O (stereo not given): 0 (no)
